From: paper PMC10397247

Target: T1, AP7-AA
T1 chain: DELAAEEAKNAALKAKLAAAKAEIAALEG
Test: two-hybrid library CCmax;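 also: natural log of median RNA to DNA barcode read ratio; higher means stronger binding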
Details: mean of both orientations
reportedMetric: interaction score

- binder: "DELAAIEAEIAALEAKKAALKAKNAALKG [AP3-AA]"
  recordedMeasurement: -1.93
- binder: "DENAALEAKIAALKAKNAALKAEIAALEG [4H1401-AA]"
  recordedMeasurement: -1.37
- binder: "DEEAALEAKAAALKAELAANEAKLAAAKG [AP6-AA]"
  recordedMeasurement: -1.62
- binder: "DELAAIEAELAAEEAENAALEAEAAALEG [AP1-AA]"
  recordedMeasurement: -1.41
